The origin of these recorded values is PubChem BioAssay (NCI).

test system: SF-539 CNS; assay: NCI tumour cell line growth inhibition, 48 h
Listed here: items and their measured TGI.

- compound: "CCNC(=O)c1c(O)c2ccccc2[nH]c1=O"
  operatorSymbol: ">"
  TGI / µM: 100
- compound: "Oc1ccc(Cl)cc1CN1CCN(Cc2cc(Cl)ccc2O)C1"
  operatorSymbol: "="
  TGI / µM: 2.81
- compound: "COc1ccc(CN=C(N)N)c2ccccc12"
  operatorSymbol: "="
  TGI / µM: 52.8
- compound: "O=C(Cc1ccccc1)Nn1c(-c2ccccc2)nc2ccccc2c1=O"
  operatorSymbol: ">"
  TGI / µM: 100
- compound: "O=[N+]([O-])C1Cc2ccccc2OC1c1ccccc1 (configuration not stated)"
  operatorSymbol: "="
  TGI / µM: 89.2
- compound: "CCOC(=O)CC(=O)Nc1cccc2[nH]cnc12"
  operatorSymbol: ">"
  TGI / µM: 100
- compound: "COc1ccc2cc(CN3CCC(C4CCNCC4)CC3)ccc2c1"
  operatorSymbol: "="
  TGI / µM: 4.03

----------
test system: TK-10 renal; experiment: NCI tumour cell line growth inhibition, 48 h
Parameter TGI: see the listing below.

- compound: "O=C(Nc1ccc(-n2ccc3c(NC(=O)c4ccccc4)ncnc32)cc1)Nc1cccc(Cl)c1Cl"
  TGI: "2.34 µM"
- compound: "CCOC(=N)/C(=C1\\OC(N)=C(c2ccc(Cl)cc2)C1=O)c1ccc(Cl)cc1"
  TGI: "51.9 µM"
- compound: "CC1C2(C)OC(=N)C(C#N)(C(c3cccc([N+](=O)[O-])c3)O2)C1(C#N)C#N (stereo unspecified)"
  TGI: "> 100 µM"
- compound: "COc1cccc(NC(=O)c2sc3nc4c(cc3c2N)C(=O)CCC4)c1"
  TGI: "> 100 µM"
- compound: "COC(=O)Cc1ccc(Oc2cnc3cc(F)c(F)cc3n2)cc1"
  TGI: "> 100 µM"
- compound: "CNC(=O)Cc1nc(-c2cccc(NS(=O)(=O)c3c(F)cccc3F)c2F)c(-c2ccnc(Nc3ccccc3)n2)s1"
  TGI: "> 40.7 µM"
- compound: "O=C1OC(=O)c2cc(S(=O)(=O)c3ccc4c(c3)C(=O)OC4=O)ccc21"
  TGI: "> 100 µM"
- compound: "Cn1c2ccc(Br)cc2c2c3c(c4c5ccccc5[nH]c4c21)C(=O)N(O)C3=O"
  TGI: "1.42 µM"
- compound: "NC(=O)c1cccc(Nc2nccc(Nc3cccc4[nH]ncc34)n2)c1"
  TGI: "> 25 µM"
- compound: "CCOC(=O)/C(C#N)=C/c1ccnc2ccccc12"
  TGI: "> 100 µM"
- compound: "O=C1CCCCCCCCCCC1CN1CCCCC1 (stereo unspecified)"
  TGI: "> 100 µM"
- compound: "CC(=O)OC1COC(Nc2nc(NCc3ccccc3)n(C)c(=O)c2N=O)C(OC(C)=O)C1OC(C)=O (stereo unspecified)"
  TGI: "> 10 µM"
- compound: "COc1ccc2cc(CN3CCC(C4CCNCC4)CC3)ccc2c1"
  TGI: "21.3 µM"
- compound: "O=C(N/N=C1/C(=O)c2c3ccccc3cc3cccc1c23)c1ccccc1"
  TGI: "78.5 µM"
- compound: "CCCC(CCC)C(=O)OCC1(CO)C/C(=C\\c2ccc(F)cc2)C(=O)O1 (stereo unspecified)"
  TGI: "23.6 µM"
- compound: "O=[N+]([O-])C1Cc2ccccc2OC1c1ccccc1 (stereo unspecified)"
  TGI: "> 100 µM"
- compound: "FC(F)(F)C1(Br)C(c2ccccc2)=C1c1ccccc1"
  TGI: "48.6 µM"
- compound: "CN1C(=O)C(=O)c2cc3c(c4c2c1cc1ccccc14)OCO3"
  TGI: "> 100 µM"
- compound: "CN/N=C(\\C)C(CN(C)C)C(c1ccccc1)c1c(O)c2ccccc2oc1=O (stereo unspecified)"
  TGI: "> 100 µM"
- compound: "COc1ccc(N2C(=O)C3c4[nH]c5ccc(F)cc5c4C4CCC(c5ccccc5)CC4C3C2=O)cc1 (stereo unspecified)"
  TGI: "70.1 µM"
- compound: "CCOC(=O)CC1(c2cccc3ccccc23)OC(=O)c2ccccc21 (stereo unspecified)"
  TGI: "> 100 µM"
- compound: "CC/C=C(\\C(=C/CC)[N+](=O)[O-])[N+](=O)[O-]"
  TGI: "33.7 µM"
- compound: "COc1ccc(OC)c2c1[nH]c(=O)c1c3ncccc3cn21"
  TGI: "13.6 µM"
- compound: "CC(C)C(N)=O"
  TGI: "> 5000 µM"
- compound: "CSc1n[n+]2c(s1)SCCC2"
  TGI: "> 100 µM"
- compound: "CC1=Nc2sc3c(c2C2=NCCN12)CCCC3"
  TGI: "> 100 µM"
- compound: "CCCCCCCCCCCCCCCC(=O)N(CCCCCCCCCCC(=O)O)CC(O)C(O)C(OC1OC(CO)C(O)C(O)C1O)C(O)CO (stereo unspecified)"
  TGI: "> 100 µM"
- compound: "CCc1cccc(CC)c1NC(=O)C1=C(C)NC(C)=C(C(=O)Nc2c(CC)cccc2CC)C1c1ccc([N+](=O)[O-])cc1"
  TGI: "82.5 µM"
- compound: "CC(=O)On1c(-c2ccccc2-c2nc3ccccc3n2OC(C)=O)nc2ccccc21"
  TGI: "> 100 µM"
- compound: "FC1C2=C(SC1(F)F)C1CCC2C1 (stereo unspecified)"
  TGI: "> 100 µM"
- compound: "CCOP(=O)(OCC)C(C#N)Cc1ccco1 (stereo unspecified)"
  TGI: "> 10 µM"
